experiment: PK/PD study ATL-4: plasma and tissue concentrations after single IV injection, nontumored mice; type: in vivo, female athymic NCr-nu/nu mice; settings: female, athymic NCr-nu/nu, mouse, plasma; paclitaxel 18.9 mg/kg single IV; read-out: AUClast for paclitaxel in plasma

Smiles Text: CC(=O)O[C@H]1C(=O)[C@@]2(C)[C@H]([C@H](OC(=O)c3ccccc3)[C@]3(O)C[C@H](OC(=O)[C@H](O)[C@@H](NC(=O)c4ccccc4)c4ccccc4)C(C)=C1C3(C)C)[C@]1(OC(C)=O)CO[C@@H]1C[C@@H]2O
AUC(0-t), ng·h/mL: 37700
